The reported measurements were obtained from patent US8940516B2.

# measuredTarget: AtHNL (Arabidopsis thaliana)
# Construct: made in house; host or cells: E. coli BL21(DE3), plasmid pAtHNL (pET28a, NcoI/XhoI)
# Sequence (Q9LFT6 1-258): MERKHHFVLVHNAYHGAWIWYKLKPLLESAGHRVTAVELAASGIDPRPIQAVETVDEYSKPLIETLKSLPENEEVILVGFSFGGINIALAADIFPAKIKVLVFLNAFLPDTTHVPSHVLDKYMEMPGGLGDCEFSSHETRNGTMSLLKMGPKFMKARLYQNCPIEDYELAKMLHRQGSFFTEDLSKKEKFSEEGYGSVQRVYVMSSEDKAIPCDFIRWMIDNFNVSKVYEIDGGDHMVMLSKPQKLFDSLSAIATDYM
# Format: biochemical
property: ee (R) (%)
Output spec: scalar in %, unitless text.

Completed entries (count: 5):
>  <molecule>
CCCCC(C)=O [2-hexanone]

>  <endpointUnit>
%

>  <experimentalValue>
0

$$$$
>  <molecule>
O=Cc1cccc(Oc2ccccc2)c1

>  <endpointUnit>
%

>  <experimentalValue>
78

$$$$
>  <molecule>
O=Cc1ccc(Cl)cc1

>  <endpointUnit>
%

>  <experimentalValue>
95

$$$$
>  <molecule>
O=CCCc1ccccc1

>  <endpointUnit>
%

>  <experimentalValue>
68

$$$$
>  <molecule>
CCCCC(C)=O [compound 24]

>  <endpointUnit>
%

>  <experimentalValue>
95

$$$$

QUERY: Report ee (R) (%) from AtHNL (Arabidopsis thaliana) testing of O=CCc1ccccc1
RESULT: 71

QUERY: Specify ee (R) (%) for CCCCCC=O , system AtHNL (Arabidopsis thaliana).
RESULT: 98

* * *

# measuredTarget: AtHNL (Arabidopsis thaliana, UniProt Q9LFT6)
# Construct: made in house; host or cells: E. coli BL21(DE3), plasmid pAtHNL (pET28a, NcoI/XhoI)
# Type: biochemical
property: ee (R) (%)
Answer in %, number only, no unit symbol.

>  <smiles>
C=CCc1ccccc1

>  <measuredTarget>
AtHNL (Arabidopsis thaliana, UniProt Q9LFT6)

>  <ee (R) (%)>
96

$$$$
>  <smiles>
CCCCCC(C)=O

>  <measuredTarget>
AtHNL (Arabidopsis thaliana, UniProt Q9LFT6)

>  <ee (R) (%)>
9

$$$$
>  <smiles>
CC(=O)CCc1ccccc1

>  <measuredTarget>
AtHNL (Arabidopsis thaliana, UniProt Q9LFT6)

>  <ee (R) (%)>
40

$$$$
>  <smiles>
CCC(C)=O

>  <measuredTarget>
AtHNL (Arabidopsis thaliana, UniProt Q9LFT6)

>  <ee (R) (%)>
0

$$$$

QUERY: Provide only the value of recorded ee (R) (%) for CC(=O)c1ccccc1F
RESULT: 95

QUERY: Give the reported ee (R) (%) for this compound. CCCC(C)=O
RESULT: 0

* * *

Measured Transformation (%) accompanies every entry in the list below.
# measuredTarget: AtHNL (Arabidopsis thaliana)
# Construct: made in house; host or cells: E. coli BL21(DE3), plasmid pAtHNL (pET28a, NcoI/XhoI)
# Format: biochemical
# runParameters: pH 4
# unit: % | format: bare number

Example entries and their recorded answers appear below.
>  <smiles>
O=Cc1cccc(Oc2ccccc2)c1

>  <endpointUnit>
%

>  <Transformation (%)>
73

$$$$
>  <smiles>
O=Cc1ccc(Cl)cc1

>  <endpointUnit>
%

>  <Transformation (%)>
98

$$$$
>  <smiles>
O=CCc1ccccc1

>  <endpointUnit>
%

>  <Transformation (%)>
90

$$$$
>  <smiles>
CCCCCCCC=O

>  <endpointUnit>
%

>  <Transformation (%)>
89

$$$$

QUERY: Tell me its Transformation (%) given CCCCCCC(C)=O as the entry.
RESULT: 0

QUERY: Look up and state reported Transformation (%) for COc1ccc(C=O)cc1
RESULT: 22.6
